# subject_of_test: furin, P09958
# Sequence (P09958 whole entry): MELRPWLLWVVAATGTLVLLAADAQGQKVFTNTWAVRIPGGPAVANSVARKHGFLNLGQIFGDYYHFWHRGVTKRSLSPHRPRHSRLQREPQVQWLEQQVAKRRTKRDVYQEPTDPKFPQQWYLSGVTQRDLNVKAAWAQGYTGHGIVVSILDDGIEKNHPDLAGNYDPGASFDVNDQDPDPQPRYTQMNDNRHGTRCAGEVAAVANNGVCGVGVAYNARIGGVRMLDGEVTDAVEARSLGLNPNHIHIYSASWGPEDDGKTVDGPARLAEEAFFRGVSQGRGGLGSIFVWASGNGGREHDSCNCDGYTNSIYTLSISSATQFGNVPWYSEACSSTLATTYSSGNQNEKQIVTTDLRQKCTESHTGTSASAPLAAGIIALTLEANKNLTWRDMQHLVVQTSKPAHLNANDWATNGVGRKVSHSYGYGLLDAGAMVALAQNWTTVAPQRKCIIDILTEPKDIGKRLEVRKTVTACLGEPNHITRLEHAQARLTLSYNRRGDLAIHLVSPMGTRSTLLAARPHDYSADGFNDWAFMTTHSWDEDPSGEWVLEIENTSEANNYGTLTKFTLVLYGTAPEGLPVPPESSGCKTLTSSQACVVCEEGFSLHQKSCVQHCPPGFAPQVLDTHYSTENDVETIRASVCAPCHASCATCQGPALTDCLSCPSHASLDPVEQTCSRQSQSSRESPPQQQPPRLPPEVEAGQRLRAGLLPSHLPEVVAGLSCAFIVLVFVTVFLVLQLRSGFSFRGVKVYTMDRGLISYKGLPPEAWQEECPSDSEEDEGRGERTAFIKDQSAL
# assay_summary: furin cleavage Z-score vs untreated control; higher = more cleavage, active = 3.5 or more, inactive = 1 or less, 8 variable residues between constant flanks;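 further: purified furin at 1:10 enzyme:substrate in 50 mM HEPES pH 7.5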
# stated_conditions: 30 min
The other results are listed elsewhere or left out. No count for the full screen is at hand.
Label Yes when furin cleavage Z-score >= 1; otherwise No.

Is furin cleavage Z-score at least 1? Consider CARRPRQKEAAGNASASA [FS-2782] No

Is furin cleavage Z-score at least 1? Consider CAMKIRRRRHAGNASASA [FS-275] Yes

Is furin cleavage Z-score at least 1? Consider CARVCRSDNTAGNASASA [FS-2194] Yes

Is furin cleavage Z-score at least 1? Consider CARTPRSSSAAGNASASA [FS-2833] Yes

Is furin cleavage Z-score at least 1? Consider CALVGLMALTAGNASASA [HC572] No

Is furin cleavage Z-score at least 1? Consider CAVKCCSMSYAGNASASA [HC2014] No

Is furin cleavage Z-score at least 1? Consider CARNRRHVTEAGNASASA [FS-3011] Yes

Is furin cleavage Z-score at least 1? Consider CAVIDCNTCVAGNASASA [HC886] No

Is furin cleavage Z-score at least 1? Consider CANDVVCCSMAGNASASA [HC2121] No

Is furin cleavage Z-score at least 1? Consider CAVVCCSMSQAGNASASA [HC2102] No

Is furin cleavage Z-score at least 1? Consider CARVGRSSKQAGNASASA [FS-2838] Yes

Is furin cleavage Z-score at least 1? Consider CATTPCSSSWAGNASASA [HC1897] No

Is furin cleavage Z-score at least 1? Consider CAKPTLHGPTAGNASASA [HC968] No

Is furin cleavage Z-score at least 1? Consider CARVCCSMSYAGNASASA [HC1993] No

Is furin cleavage Z-score at least 1? Consider CARNRRLVSDAGNASASA [FS-3012] Yes

Is furin cleavage Z-score at least 1? Consider CASWAIKWEYAGNASASA [HC516] No

Is furin cleavage Z-score at least 1? Consider CARRPRRVIAAGNASASA [FS-2179] Yes

Is furin cleavage Z-score at least 1? Consider CALQVLDSHYAGNASASA [HC1399] No

Is furin cleavage Z-score at least 1? Consider CASMPCSAHLAGNASASA [HC2486] No

Is furin cleavage Z-score at least 1? Consider CACFDSTVTEAGNASASA [HC1482] No

Is furin cleavage Z-score at least 1? Consider CASPLTTSQTAGNASASA [HC1060] No

Is furin cleavage Z-score at least 1? Consider CARKGRSEDIAGNASASA [FS-2341] No

Is furin cleavage Z-score at least 1? Consider CAELTPAETTAGNASASA [HC925] No

Is furin cleavage Z-score at least 1? Consider CAAPTRARRTAGNASASA [FS-1111] Yes

Is furin cleavage Z-score at least 1? Consider CAMMSRIFRHAGNASASA [FS-1236] Yes

Is furin cleavage Z-score at least 1? Consider CAGKARARRTAGNASASA [FS-782] Yes

Is furin cleavage Z-score at least 1? Consider CAAISRRQRRAGNASASA [FS-743] Yes

Is furin cleavage Z-score at least 1? Consider CARNRRALRDAGNASASA [FS-3010] Yes

Is furin cleavage Z-score at least 1? Consider CAGSHRRQRRAGNASASA [FS-434] Yes

Is furin cleavage Z-score at least 1? Consider CAEVVYSTWVAGNASASA [HC137] Yes
